Measured values drawn from patent EP4635500A1 for this set.

- Test system: Enterobacterales
- PROTOCOL NOTES: MIC, broth microdilution, CDC/FDA Antibiotic Resistance Isolate Bank (Example 7, Tables 8, 11, 12)
- Format: cell-based
- DETAILS: Klebsiella pneumoniae, KUB No. 5650, AR Bank # 153; read-out: MIC
Recorded MIC, one value per entry.

Below are worked cases with known answers.
[
  {
    "COMPOUND STRUCTURE STRING": "O=C(O)c1cn(C2CC2)c2cc(N3CCNCC3)c(F)cc2c1=O",
    "MIC": "> 64 µg/mL"
  },
  {
    "COMPOUND STRUCTURE STRING": "C[C@H]1COc2c(N3CCN(C)CC3)c(F)cc3c(=O)c(C(=O)O)cn1c23",
    "MIC": "> 64 µg/mL"
  },
  {
    "COMPOUND STRUCTURE STRING": "CO/N=C(\\C(=O)N[C@@H]1C(=O)N2C(C(=O)[O-])=C(C[n+]3ccn4ncccc43)CS[C@H]12)c1nsc(N)n1",
    "MIC": "> 64 µg/mL"
  },
  {
    "COMPOUND STRUCTURE STRING": "NCC[C@H](O)C(=O)N[C@@H]1C[C@H](N)[C@@H](O[C@H]2O[C@H](CN)[C@@H](O)[C@H](O)[C@H]2O)[C@H](O)[C@H]1O[C@H]1O[C@H](CO)[C@@H](O)[C@H](N)[C@H]1O",
    "MIC": "> 64 µg/mL"
  }
]

Give MIC for the following compound: CC(C)(O/N=C(\C(=O)N[C@@H]1C(=O)N2C(C(=O)[O-])=C(C[N+]3(CCNC(=O)c4ccc(O)c(O)c4Cl)CCCC3)CS[C@H]12)c1csc(N)n1)C(=O)O 1 µg/mL

###

- Tested on: Enterobacterales
- PROTOCOL NOTES: MIC, broth microdilution, CDC/FDA Antibiotic Resistance Isolate Bank (Example 7, Tables 8, 11, 12)
- Assay type: cell-based
- DETAILS: Klebsiella pneumoniae, KUB No. 55, AR Bank# 47; read-out: MIC
Recorded MIC, one value per entry.

Below are worked cases with known answers.
[
  {
    "COMPOUND STRUCTURE STRING": "O=C(O)c1cn(C2CC2)c2cc(N3CCNCC3)c(F)cc2c1=O",
    "TESTED SYSTEM": "Enterobacterales",
    "MEASURED ATTRIBUTE": "MIC",
    "VALUE REPORTED": "> 64 µg/mL"
  },
  {
    "COMPOUND STRUCTURE STRING": "CO/N=C(\\C(=O)N[C@@H]1C(=O)N2C(C(=O)[O-])=C(C[n+]3ccn4ncccc43)CS[C@H]12)c1nsc(N)n1",
    "TESTED SYSTEM": "Enterobacterales",
    "MEASURED ATTRIBUTE": "MIC",
    "VALUE REPORTED": "> 64 µg/mL"
  },
  {
    "COMPOUND STRUCTURE STRING": "C[C@H]1COc2c(N3CCN(C)CC3)c(F)cc3c(=O)c(C(=O)O)cn1c23",
    "TESTED SYSTEM": "Enterobacterales",
    "MEASURED ATTRIBUTE": "MIC",
    "VALUE REPORTED": "64 µg/mL"
  }
]

With those in mind, consider the next compound.
Give MIC for the following compound: NCC[C@H](O)C(=O)N[C@@H]1C[C@H](N)[C@@H](O[C@H]2O[C@H](CN)[C@@H](O)[C@H](O)[C@H]2O)[C@H](O)[C@H]1O[C@H]1O[C@H](CO)[C@@H](O)[C@H](N)[C@H]1O 32 µg/mL

###

Recorded MIC, one value per entry.
- Tested on: Enterobacterales
- PROTOCOL NOTES: MIC, broth microdilution, CDC/FDA Antibiotic Resistance Isolate Bank (Example 7, Tables 8, 11, 12)
- Assay type: cell-based
- DETAILS: Klebsiella pneumoniae, KUB No. 5639, AR Bank # 142; read-out: MIC

Below are worked cases with known answers.
[
  {
    "MOLECULE": "CO/N=C(\\C(=O)N[C@@H]1C(=O)N2C(C(=O)[O-])=C(C[n+]3ccn4ncccc43)CS[C@H]12)c1nsc(N)n1 [Cefozopran, cefozopran]",
    "MIC": "> 64 µg/mL"
  },
  {
    "MOLECULE": "NCC[C@H](O)C(=O)N[C@@H]1C[C@H](N)[C@@H](O[C@H]2O[C@H](CN)[C@@H](O)[C@H](O)[C@H]2O)[C@H](O)[C@H]1O[C@H]1O[C@H](CO)[C@@H](O)[C@H](N)[C@H]1O [Amikacin, amikacin]",
    "MIC": "> 64 µg/mL"
  },
  {
    "MOLECULE": "CC(C)(O/N=C(\\C(=O)N[C@@H]1C(=O)N2C(C(=O)[O-])=C(C[N+]3(CCNC(=O)c4ccc(O)c(O)c4Cl)CCCC3)CS[C@H]12)c1csc(N)n1)C(=O)O [Cefiderocol, cefiderocol]",
    "MIC": "< 0.06 µg/mL"
  }
]

With those in mind, consider the next molecule.
Give MIC for the following molecule: C[C@H]1COc2c(N3CCN(C)CC3)c(F)cc3c(=O)c(C(=O)O)cn1c23 [Levofloxacin, levofloxacin] 8 µg/mL

###

Recorded MIC, one value per entry.
- Test system: P. aeruginosa
- PROTOCOL NOTES: MIC, broth microdilution, CDC/FDA Antibiotic Resistance Isolate Bank (Example 7, Tables 10, 15)
- Assay type: cell-based
- DETAILS: Pseudomonas aeruginosa, P. aeruginosa KUB No. 5608, AR Bank # 111; read-out: MIC
Lab book: enter the figure in µg/mL, no units written.

[
  {
    "COMPOUND STRUCTURE STRING": "CC(C)(O/N=C(\\C(=O)N[C@@H]1C(=O)N2C(C(=O)[O-])=C(C[N+]3(CCNC(=O)c4ccc(O)c(O)c4Cl)CCCC3)CS[C@H]12)c1csc(N)n1)C(=O)O",
    "MIC (µg/mL)": 0.5
  },
  {
    "COMPOUND STRUCTURE STRING": "CN(C)c1cc(NC(=O)CNC(C)(C)C)c(O)c2c1C[C@H]1C[C@H]3[C@H](N(C)C)C(O)=C(C(N)=O)C(=O)[C@@]3(O)C(O)=C1C2=O",
    "MIC (µg/mL)": 8
  }
]

Give MIC for the following molecule: C[C@H]1[C@H](NC(=O)/C(=N\OC(C)(C)C(=O)O)c2csc(N)n2)C(=O)N1S(=O)(=O)O 2

Give MIC for the following molecule: C[C@H]1COc2c(N3CCN(C)CC3)c(F)cc3c(=O)c(C(=O)O)cn1c23 32

###

- Test system: Enterobacterales
- PROTOCOL NOTES: MIC, broth microdilution, CDC/FDA Antibiotic Resistance Isolate Bank (Example 7, Tables 8, 11, 12)
- Assay type: cell-based
- DETAILS: Morganella morganii, KUB No. 5630, AR Bank # 133; read-out: MIC
Recorded MIC, one value per entry.
Lab book: enter the figure in mg/L, no units written.

Below are worked cases with known answers.
[
  {
    "COMPOUND STRUCTURE STRING": "CN(C)c1cc(NC(=O)CNC(C)(C)C)c(O)c2c1C[C@H]1C[C@H]3[C@H](N(C)C)C(=O)C(C(N)=O)=C(O)[C@@]3(O)C(=O)C1=C2O",
    "MIC [mg/L]": 4
  },
  {
    "COMPOUND STRUCTURE STRING": "NCC[C@H](O)C(=O)N[C@@H]1C[C@H](N)[C@@H](O[C@H]2O[C@H](CN)[C@@H](O)[C@H](O)[C@H]2O)[C@H](O)[C@H]1O[C@H]1O[C@H](CO)[C@@H](O)[C@H](N)[C@H]1O",
    "MIC [mg/L]": 1
  },
  {
    "COMPOUND STRUCTURE STRING": "CO/N=C(\\C(=O)N[C@@H]1C(=O)N2C(C(=O)[O-])=C(C[n+]3ccn4ncccc43)CS[C@H]12)c1nsc(N)n1",
    "MIC [mg/L]": 64
  }
]

With those in mind, consider the next compound.
Give MIC for the following compound: C[C@H]1COc2c(N3CCN(C)CC3)c(F)cc3c(=O)c(C(=O)O)cn1c23 64

###

- System: Klebsiella pneumoniae
- PROTOCOL NOTES: MIC, broth microdilution, standard strains and Japanese clinical isolates (Example 5, Table 4)
- Assay type: cell-based
- DETAILS: ATCCBAA2146, KUB4011 Klebsiella pneumoniae ATCC BAA-2146, NDM-1
Recorded MIC, one value per entry.

Below are worked cases with known answers.
[
  {
    "COMPOUND STRUCTURE STRING": "CC(C)(O/N=C(\\C(=O)N[C@@H]1C(=O)N2C(C(=O)[O-])=C(C[N+]3(CCNC(=O)c4ccc(O)c(O)c4Cl)CCCC3)CS[C@H]12)c1csc(N)n1)C(=O)O",
    "TESTED SYSTEM": "Klebsiella pneumoniae",
    "MIC": "2 µg/mL"
  },
  {
    "COMPOUND STRUCTURE STRING": "C[C@@H](O)[C@H]1C(=O)N2C(C(=O)O)=C(SCCN=CN)C[C@H]12",
    "TESTED SYSTEM": "Klebsiella pneumoniae",
    "MIC": "> 32 µg/mL"
  },
  {
    "COMPOUND STRUCTURE STRING": "CC(C)(O/N=C(\\C(=O)N[C@@H]1C(=O)N2C(C(=O)[O-])=C(C[n+]3ccccc3)CS[C@H]12)c1csc(N)n1)C(=O)O",
    "TESTED SYSTEM": "Klebsiella pneumoniae",
    "MIC": "> 32 µg/mL"
  }
]

With those in mind, consider the next compound.
Give the observed MIC of C[C@@H](O)[C@H]1C(=O)N2C(C(=O)O)=C(S[C@@H]3CN[C@H](C(=O)N(C)C)C3)[C@H](C)[C@H]12 for Klebsiella pneumoniae. 64 µg/mL
